# Species on record: Cavia porcellus
# experimental protocol: Score value indicates selectivity versus the decrease in force of contraction
# Type: functional
endpoint label: Score

[[record]]
compound = "CCCCC1(CCCC)C2CN(CC3CCCCC3)CC1CN(C(C)C)C2"
endpoint_label = "Score"
value_observed = -5

[[record]]
compound = "CCCCN1CC2CN(CC3CCCCC3)CC(C1)C2(C)C"
endpoint_label = "Score"
value_observed = -1

[[record]]
compound = "CCCCCCN1CC2CN(CCCCCC)CC(C1)C21CCCC1"
endpoint_label = "Score"
value_observed = -3

[[record]]
compound = "CCCCN1CC2CN(CCCC)CC(C1)C2(C)CC (centres undefined)"
endpoint_label = "Score"
value_observed = -6

[[record]]
compound = "C=CCN1CC2CN(CC=C)CC(C1)C2(C)C"
endpoint_label = "Score"
value_observed = 0

[[record]]
compound = "C=CCCN1CC2CN(CC(C)C)CC(C1)C2(CCC)CCC"
endpoint_label = "Score"
value_observed = 0

[[record]]
compound = "CCCCCCN1CC2CN(CCCCCC)CC(C1)C2(CC)CCCC (centres undefined)"
endpoint_label = "Score"
value_observed = -4

[[record]]
compound = "CCCCN1CC2CN(CCCC)CC(C1)C2(C)C"
endpoint_label = "Score"
value_observed = 0

[[record]]
compound = "CCCC1(CCC)C2CN(C(C)C)CC1CN(C(C)C)C2"
endpoint_label = "Score"
value_observed = -1

[[record]]
compound = "CCCCN1CC2CN(CCCC)CC(C1)C2(CCCC)CCCC"
endpoint_label = "Score"
value_observed = -5

[[record]]
compound = "CCCCN1CC2CN(CC(C)C)CC(C1)C2(C)C"
endpoint_label = "Score"
value_observed = 0

[[record]]
compound = "C=CCCN1CC2CN(CCC=C)CC(C1)C21CCCCC1"
endpoint_label = "Score"
value_observed = 0

[[record]]
compound = "CCCCN1CC2CN(CCCC)CC(C1)C21CCC1"
endpoint_label = "Score"
value_observed = 0

[[record]]
compound = "CCCCCCN1CC2CC(CN(C)C2)C1"
endpoint_label = "Score"
value_observed = -5

[[record]]
compound = "CC(C)N1CC2CN(C(C)C)CC(C1)C2(C)C"
endpoint_label = "Score"
value_observed = -2

[[record]]
compound = "C=CCCN1CC2CN(CCCC)CC(C1)C2(C)C"
endpoint_label = "Score"
value_observed = 0

[[record]]
compound = "C1CCC2(C1)C1CN(CC3CC3)CC2CN(CC2CC2)C1"
endpoint_label = "Score"
value_observed = 0

[[record]]
compound = "CCCC1(C)C2CN(C(C)C)CC1CN(C(C)C)C2 (centres undefined)"
endpoint_label = "Score"
value_observed = 0

[[record]]
compound = "CC(C)CN1CC2CN(C(C)C)CC(C1)C21CCCCC1"
endpoint_label = "Score"
value_observed = 0

[[record]]
compound = "CN1CC2CN(C)CC(C1)C2(C)C"
endpoint_label = "Score"
value_observed = -5

[[record]]
compound = "C1CCC(CN2CC3CN(CC4CCCCC4)CC(C2)C32CCCCC2)CC1"
endpoint_label = "Score"
value_observed = -6

[[record]]
compound = "CCC1(C)C2CN(CC3CCCCC3)CC1CN(CC1CCCCC1)C2 (centres undefined)"
endpoint_label = "Score"
value_observed = -6

[[record]]
compound = "C=CCCN1CC2CN(CCC=C)CC(C1)C2(C)C"
endpoint_label = "Score"
value_observed = 0

[[record]]
compound = "CCCN1CC2CN(CCC)CC(C1)C2(CC)CC"
endpoint_label = "Score"
value_observed = 0

